// data source = patent US12545673B2

System: influenza virus LE
TEST_SUMMARY: microbe, parasite or virus in culture
Type: cell-based
CONDITION_SUMMARY: unidentified influenza virus, MDCK, read-out: Antiviral activity (EC50, μM) LE
EXPERIMENTAL_READOUT: EC50

Worked set:
CCS(=O)(=O)N1CC[C@H](Nc2c(Br)cnc3[nH]c(-c4cc(C)n(-c5cc(NS(C)(=O)=O)ccc5C)c4C)nc23)C1 [Example 7] ... > 100 µM
CCS(=O)(=O)N1CC[C@H](Nc2c(Br)cnc3nc(-c4cc(C)n(-c5cccc(NS(C)(=O)=O)c5)c4C)[nH]c23)C1 [Example 12] ... > 100 µM
CCS(=O)(=O)N1CC[C@H](Nc2c(Br)cnc3[nH]c(-c4cc(C)n(-c5cc(S(N)(=O)=O)ccc5Cl)c4C)nc23)C1 [Example 17] ... > 100 µM
CCS(=O)(=O)N1CC[C@H](Nc2c(Br)cnc3nc(-c4cc(C)n(-c5ccc(OCCN6CCOCC6)cc5)c4C)[nH]c23)C1 [Example 4] ... 9.9 µM

Could you share which EC50 value was measured for CCS(=O)(=O)N1CC[C@H](Nc2c(Br)cnc3nc(-c4cc(C)n(-c5cccc(S(N)(=O)=O)c5)c4C)[nH]c23)C1 [Example 23] ? > 100 µM

###

System: human lung cancer cell line A549
TEST_SUMMARY: Cancer cell proliferation inhibitory activity evaluation 2 (CCK-8), A549
Type: cell-based
CONDITION_SUMMARY: A549, 10 μM, 72 hours, CCK-8, read-out: Cancer cell proliferation inhibitory activity A549
inhibition at 10 µM: recorded values

Worked set:
CCS(=O)(=O)N1CC[C@H](Nc2c(Br)cnc3[nH]c(-c4cc(C)n(-c5ccc(C(=O)NCCN6CCOCC6)cc5)c4C)nc23)C1 ... 10 to 50%
CCS(=O)(=O)N1CC[C@H](Nc2c(Br)cnc3nc(-c4cc(C)n(-c5cccc(OCCN6CCOCC6)c5)c4C)[nH]c23)C1 ... 10 to 50%
Cc1ccc(NC(=O)CN2CCOCC2)cc1-n1c(C)cc(-c2nc3ncc(Br)c(Nc4cccc(S(N)(=O)=O)c4)c3[nH]2)c1C ... 10 to 50%
Cc1ccc(C(=O)N2CCOCC2)cc1-n1c(C)cc(-c2nc3ncc(Br)c(Nc4cccc(S(N)(=O)=O)c4)c3[nH]2)c1C ... < 10%
CCS(=O)(=O)N1CC[C@H](Nc2c(Br)cnc3[nH]c(-c4cc(C)n(-c5cccc(C(=O)O)c5)c4C)nc23)C1 ... < 10%

Could you share which inhibition at 10 µM value was measured for CCS(=O)(=O)N1CC[C@H](Nc2c(Cl)cnc3[nH]c(-c4cc(C)n(-c5cc(NS(C)(=O)=O)ccc5C)c4C)nc23)C1 ? 10 to 50%

Could you share which inhibition at 10 µM value was measured for CCS(=O)(=O)N1CC[C@H](Nc2c(Br)cnc3[nH]c(-c4cc(C)n(-c5ccc(C(=O)N6CCOCC6)cc5C)c4C)nc23)C1 ? 10 to 50%

Could you share which inhibition at 10 µM value was measured for CCS(=O)(=O)N1CC[C@H](Nc2c(Br)cnc3nc(-c4cc(C)n(-c5cc(NC(=O)CCN(C)C)ccc5C)c4C)[nH]c23)C1 ? > 50%

Could you share which inhibition at 10 µM value was measured for Cc1ccc(NC(=O)CN2CCN(C)CC2)cc1-n1c(C)cc(-c2nc3ncc(Br)c(Nc4cccc(S(N)(=O)=O)c4)c3[nH]2)c1C ? < 10%

Could you share which inhibition at 10 µM value was measured for Cc1ccc(C(=O)N2CCN(C)CC2)cc1-n1c(C)cc(-c2nc3ncc(Br)c(Nc4cccc(S(N)(=O)=O)c4)c3[nH]2)c1C ? < 10%

Could you share which inhibition at 10 µM value was measured for CCS(=O)(=O)N1CC[C@H](Nc2c(Br)cnc3nc(-c4cc(C)n(-c5ccc(NC(=O)CN6CCOCC6)cc5C)c4C)[nH]c23)C1 ? 10 to 50%

Could you share which inhibition at 10 µM value was measured for Cc1ccc(C(=O)NCCN(C)C)cc1-n1c(C)cc(-c2nc3ncc(Br)c(Nc4cccc(S(N)(=O)=O)c4)c3[nH]2)c1C ? < 10%

Could you share which inhibition at 10 µM value was measured for CCN(CC)CCNC(=O)c1cccc(-n2c(C)cc(-c3nc4ncc(Br)c(N[C@H]5CCN(S(=O)(=O)CC)C5)c4[nH]3)c2C)c1 ? > 50%
